- Target Desc: hTLR9 (Homo sapiens)
- Sequence (Q9NR96 26-1032): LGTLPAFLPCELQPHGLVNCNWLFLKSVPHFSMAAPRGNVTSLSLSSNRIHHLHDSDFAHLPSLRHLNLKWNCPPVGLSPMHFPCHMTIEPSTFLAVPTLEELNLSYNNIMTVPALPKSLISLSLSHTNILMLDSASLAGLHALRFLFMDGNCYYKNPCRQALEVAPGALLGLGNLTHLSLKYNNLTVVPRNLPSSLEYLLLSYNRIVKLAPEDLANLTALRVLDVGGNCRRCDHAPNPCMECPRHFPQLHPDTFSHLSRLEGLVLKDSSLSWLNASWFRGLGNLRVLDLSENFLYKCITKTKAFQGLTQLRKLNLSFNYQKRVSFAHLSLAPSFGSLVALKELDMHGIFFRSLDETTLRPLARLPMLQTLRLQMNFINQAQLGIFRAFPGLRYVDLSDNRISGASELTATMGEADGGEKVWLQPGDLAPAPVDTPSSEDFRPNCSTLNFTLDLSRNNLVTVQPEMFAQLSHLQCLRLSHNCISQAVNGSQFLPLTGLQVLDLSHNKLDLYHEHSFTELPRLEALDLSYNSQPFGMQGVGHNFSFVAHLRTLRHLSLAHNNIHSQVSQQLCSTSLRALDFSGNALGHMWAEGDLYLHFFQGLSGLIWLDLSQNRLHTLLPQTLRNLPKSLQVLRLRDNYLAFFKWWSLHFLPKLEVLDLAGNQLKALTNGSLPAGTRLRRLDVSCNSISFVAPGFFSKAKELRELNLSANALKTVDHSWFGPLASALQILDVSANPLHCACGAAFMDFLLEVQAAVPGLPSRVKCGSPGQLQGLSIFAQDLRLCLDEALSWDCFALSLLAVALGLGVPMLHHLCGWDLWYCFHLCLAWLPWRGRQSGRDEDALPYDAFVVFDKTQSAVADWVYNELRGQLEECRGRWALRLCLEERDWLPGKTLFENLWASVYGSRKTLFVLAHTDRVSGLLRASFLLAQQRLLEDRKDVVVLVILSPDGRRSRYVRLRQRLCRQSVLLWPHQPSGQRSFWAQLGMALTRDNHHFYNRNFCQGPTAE
- Assay: HEK293-Blue-hTLR-9 cells assay (SEAP reporter, ODN2006 stimulation)
- Assay type: cell-based
- Set-up: host or cells: HEK293 (HEK-Blue hTLR9)
- Assay Conditions: HEK293-Blue-hTLR9 cells, ODN2006, 20 hrs; read-out: HEK/hTLR9 IC50
// IC50 lookup, one value per entry
Give the value in nM but do not write nM after it.

Some solved cases for reference:
INSERT INTO results (molecule, assay_result) VALUES
  ('C[C@@H]1CN(c2ccc(C#N)c3ncccc23)C[C@H](CN2CCN(c3ccc(N4CC(N)C(F)C4)nc3)CC2)O1 (stereo partly drawn)', 164),
  ('COC1CN(c2nccc(N3CCN(C[C@H]4CN(c5ccc(C#N)c6ncccc56)C[C@@H](C)O4)CC3)n2)CC1N (stereo in doubt)', 31);

Input line: // map Cc1cc(N2CCN(C[C@H]3CN(c4ccc(C#N)c5ncccc45)C[C@@H](C)O3)CC2)nc(N2C[C@H](N)C[C@@H](F)C2)n1 (relative stereo) to recorded IC50 (system: hTLR9 (Homo sapiens))
Output line: 57

* * *

- Target Desc: CYP2C9 (Homo sapiens, UniProt P11712)
- Construct: tissue BD-Gentest 452117; host or cells: human liver microsomes
- Sequence (P11712 whole entry): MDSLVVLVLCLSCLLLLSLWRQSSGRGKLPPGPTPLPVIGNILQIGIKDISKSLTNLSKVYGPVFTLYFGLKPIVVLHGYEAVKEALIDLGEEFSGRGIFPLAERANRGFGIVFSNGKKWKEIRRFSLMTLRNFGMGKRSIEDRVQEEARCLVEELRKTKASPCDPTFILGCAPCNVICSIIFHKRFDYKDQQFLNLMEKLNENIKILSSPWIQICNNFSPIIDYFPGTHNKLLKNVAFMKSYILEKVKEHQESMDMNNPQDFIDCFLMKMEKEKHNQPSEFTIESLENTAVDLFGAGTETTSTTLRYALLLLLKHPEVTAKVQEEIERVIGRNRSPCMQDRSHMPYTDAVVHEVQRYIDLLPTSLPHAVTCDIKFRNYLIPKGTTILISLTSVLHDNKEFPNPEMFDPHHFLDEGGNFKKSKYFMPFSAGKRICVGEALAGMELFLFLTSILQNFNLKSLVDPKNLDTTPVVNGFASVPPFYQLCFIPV
- Assay: CYP inhibition assay in human liver microsome, CYP2C9
- Assay type: in vitro ADME
- Assay Conditions: human, human liver microsomes, probe diclofenac 5 μM, substrate diclofenac 5 μM, first value of 2C9/2D6/3A4
Observed Property: inhibition at 5 min, 10 µM
Quote the value and follow it with the unit of measurement.

Some solved cases for reference:
INSERT INTO measurements (compound, target_desc, observed_property, assay_result) VALUES
  ('[2H]c1ccc2c(N3C[C@H](CN4CCN(c5ccc(N6CC(C)(N)C6)nc5)CC4)O[C@H](C)C3)ccc(C#N)c2n1', 'CYP2C9 (Homo sapiens, UniProt P11712)', 'inhibition at 5 min, 10 µM', '-1%'),
  ('C[C@@H]1CN(c2ccc(C#N)c3ncccc23)C[C@H](CN2CCC(c3cccc(N4CCNCC4)c3)C2)O1 (stereo partly shown)', 'CYP2C9 (Homo sapiens, UniProt P11712)', 'inhibition at 5 min, 10 µM', '-7%'),
  ('C[C@@H]1CN(c2ccc(C#N)c3ncccc23)C[C@H](CN2CCN(c3ccnc(N4CCNCC(O)C4)n3)CC2)O1 (stereo partly shown)', 'CYP2C9 (Homo sapiens, UniProt P11712)', 'inhibition at 5 min, 10 µM', '-5.5%'),
  ('C[C@@H]1CN(c2ccc(C#N)c3ncccc23)C[C@H](CN2CCN(c3nc(N4CCNCC4)ncc3F)CC2)O1', 'CYP2C9 (Homo sapiens, UniProt P11712)', 'inhibition at 5 min, 10 µM', '-3.5%');

Input line: Value lookup for inhibition at 5 min, 10 µM; key = C[C@@H]1CN(c2ccc(C#N)c3ncccc23)C[C@H](CN2CCN(c3ccnc(N4C[C@H](N)[C@@H](F)C4)n3)CC2)O1
Output line: 22%

Input line: Could you do the same for C[C@@H]1CN(c2ccc(C#N)c3ncccc23)C[C@H](CN2CCN(c3ccnc(N4CCN[C@@H](CO)C4)n3)CC2)O1 , please?
Output line: -2%

Input line: Could you do the same for [2H]c1ccc2c(N3C[C@H](CN4CCN(c5ccc(N6CC7(CNCCO7)C6)nc5)CC4)O[C@H](C)C3)ccc(C#N)c2n1 , please?
Output line: -1%

* * *

- Target Desc: hERG channel (Homo sapiens, UniProt Q12809)
- Construct: expressed in transfected cells; host or cells: CHO (Chinese hamster ovary)
- Sequence (Q12809 whole entry): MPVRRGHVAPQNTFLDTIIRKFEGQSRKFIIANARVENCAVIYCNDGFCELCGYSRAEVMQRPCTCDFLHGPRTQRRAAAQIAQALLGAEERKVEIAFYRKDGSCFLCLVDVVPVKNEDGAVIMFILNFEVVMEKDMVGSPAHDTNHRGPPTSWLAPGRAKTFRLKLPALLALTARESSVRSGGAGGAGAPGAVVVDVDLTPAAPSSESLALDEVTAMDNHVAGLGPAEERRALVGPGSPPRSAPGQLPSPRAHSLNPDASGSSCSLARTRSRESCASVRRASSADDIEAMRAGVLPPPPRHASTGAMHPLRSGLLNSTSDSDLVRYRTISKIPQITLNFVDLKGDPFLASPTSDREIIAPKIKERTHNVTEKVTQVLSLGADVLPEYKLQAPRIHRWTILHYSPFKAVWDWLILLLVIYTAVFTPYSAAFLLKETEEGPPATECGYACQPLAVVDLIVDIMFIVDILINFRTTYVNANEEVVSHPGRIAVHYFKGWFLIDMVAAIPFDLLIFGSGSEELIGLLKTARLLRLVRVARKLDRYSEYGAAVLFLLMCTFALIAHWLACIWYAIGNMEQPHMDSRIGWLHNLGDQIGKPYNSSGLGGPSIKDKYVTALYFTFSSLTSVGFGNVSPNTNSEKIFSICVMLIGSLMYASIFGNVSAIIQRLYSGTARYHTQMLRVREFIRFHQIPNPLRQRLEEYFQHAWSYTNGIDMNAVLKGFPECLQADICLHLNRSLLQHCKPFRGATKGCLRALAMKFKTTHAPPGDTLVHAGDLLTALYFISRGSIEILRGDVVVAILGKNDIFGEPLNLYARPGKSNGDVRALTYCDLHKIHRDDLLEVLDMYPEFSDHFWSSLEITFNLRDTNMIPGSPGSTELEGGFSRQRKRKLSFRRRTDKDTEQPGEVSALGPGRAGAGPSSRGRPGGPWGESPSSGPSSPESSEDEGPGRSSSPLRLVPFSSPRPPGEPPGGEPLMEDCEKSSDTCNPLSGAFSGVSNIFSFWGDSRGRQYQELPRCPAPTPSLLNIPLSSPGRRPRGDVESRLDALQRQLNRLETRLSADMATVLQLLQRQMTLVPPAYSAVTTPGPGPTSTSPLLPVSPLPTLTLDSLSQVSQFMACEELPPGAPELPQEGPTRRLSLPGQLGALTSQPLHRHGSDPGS
- Assay: hERG channel inhibition assay (patch-clamp, CHOhERG cells)
- Format: cell-based
- Assay Conditions: safety ratio
// hERG IC20/TLR9 IC50 lookup, one value per entry
Please respond with just the number, no unit label.

INSERT INTO assay_data (compound, assay_result) VALUES
  ('C[C@@H]1CN(c2ccc(C#N)c3ncccc23)C[C@H](CN2CCN(c3cccc(NC4CNC4)n3)CC2)O1', 57),
  ('COc1ccc(N2CCN(C[C@H]3CN(c4ccc(C#N)c5ncccc45)C[C@@H](C)O3)CC2)cc1 [Example R1, reference compound]', 0.1);

Input line: Value lookup for hERG IC20/TLR9 IC50; key = C[C@@H]1CN(c2ccc(C#N)c3ncccc23)C[C@H](CN2CCN(c3ccc(Cl)cc3)CC2)O1 [Example R2, reference compound]
Output line: 0.04

Input line: Could you do the same for C[C@@H]1CN(c2ccc(C#N)n3ncc(F)c23)C[C@H](CN2CCN(c3ccc(N4C[C@H]5NCCO[C@@H]5C4)nc3)CC2)O1 , please?
Output line: 74

Input line: Could you do the same for C[C@@H]1CN(c2ccc(C#N)c3ncccc23)C[C@H](CN2CCN(c3ccccn3)CC2)O1 [ER-888285, reference compound] , please?
Output line: 0.5

Input line: Could you do the same for CO[C@@H]1CN(c2ccc(N3CCN(C[C@H]4CN(c5ccc(C#N)n6ncc(F)c56)C[C@@H](C)O4)CC3)cn2)C[C@H]1N , please?
Output line: 173

Input line: Could you do the same for C[C@@H]1CN(c2ccc(C#N)c3ncccc23)C[C@H](CN2CCN(c3ccccc3)CC2)O1 [ER-887258, reference compound] , please?
Output line: 0.3

Input line: Could you do the same for CO[C@H]1CN(c2nccc(N3CCN(C[C@H]4CN(c5ccc(C#N)c6nccnc56)C[C@@H](C)O4)CC3)n2)C[C@@H]1N , please?
Output line: 142

Input line: Could you do the same for C[C@@H]1CN(c2ccc(C#N)c3ncccc23)C[C@H](CN2CCN(c3ccncc3)CC2)O1 [ER-888286, reference compound] , please?
Output line: 0.2

* * *

// pIC50 lookup, one value per entry
- Target Desc: human TLR7 (Homo sapiens, UniProt Q9NYK1)
- Sequence (Q9NYK1 27-1049): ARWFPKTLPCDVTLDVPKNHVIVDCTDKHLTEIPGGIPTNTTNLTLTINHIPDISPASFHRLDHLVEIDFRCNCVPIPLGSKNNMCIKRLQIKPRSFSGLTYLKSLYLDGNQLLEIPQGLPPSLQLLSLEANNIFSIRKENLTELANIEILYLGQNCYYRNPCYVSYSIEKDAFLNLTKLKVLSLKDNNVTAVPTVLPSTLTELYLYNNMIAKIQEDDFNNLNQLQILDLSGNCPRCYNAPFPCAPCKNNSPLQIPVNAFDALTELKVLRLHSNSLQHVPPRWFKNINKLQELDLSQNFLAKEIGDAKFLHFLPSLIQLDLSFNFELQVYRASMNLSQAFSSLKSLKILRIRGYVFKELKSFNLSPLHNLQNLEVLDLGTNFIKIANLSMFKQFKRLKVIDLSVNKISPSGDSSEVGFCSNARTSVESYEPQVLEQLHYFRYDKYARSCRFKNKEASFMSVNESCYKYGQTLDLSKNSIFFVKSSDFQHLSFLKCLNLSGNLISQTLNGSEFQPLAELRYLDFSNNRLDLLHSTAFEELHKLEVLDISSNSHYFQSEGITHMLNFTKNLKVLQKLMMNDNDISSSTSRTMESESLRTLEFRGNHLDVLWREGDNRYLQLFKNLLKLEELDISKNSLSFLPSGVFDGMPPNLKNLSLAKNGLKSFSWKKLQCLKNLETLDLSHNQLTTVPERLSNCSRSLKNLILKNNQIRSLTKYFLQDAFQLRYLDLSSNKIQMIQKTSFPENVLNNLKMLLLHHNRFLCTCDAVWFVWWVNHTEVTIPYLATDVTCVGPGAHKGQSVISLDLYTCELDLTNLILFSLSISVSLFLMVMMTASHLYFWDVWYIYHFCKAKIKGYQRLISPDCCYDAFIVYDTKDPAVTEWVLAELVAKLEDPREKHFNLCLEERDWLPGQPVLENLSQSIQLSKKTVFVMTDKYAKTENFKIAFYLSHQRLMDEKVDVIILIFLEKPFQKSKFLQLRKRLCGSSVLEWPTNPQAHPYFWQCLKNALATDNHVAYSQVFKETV
- Assay: HEK293-Blue-hTLR-7 cells assay (SEAP reporter, R848 stimulation)
- Assay Conditions: HEK293-Blue-hTLR7 cells, R848, 20 hrs; read-out: HEK/hTLR7 IC50
In plain terms, pIC50 is the concentration in mol/L turned into minus its base-10 logarithm.

Some solved cases for reference:
INSERT INTO assay_data (molecule, assay_result) VALUES
  ('C[C@@H]1CN(c2ccc(C#N)n3ncc(F)c23)C[C@H](CN2CCN(c3ccc(N4CC[C@@H](N)[C@H](F)C4)nc3)CC2)O1', 8.00),
  ('C[C@@H]1CN(c2ccc(C#N)c3nccnc23)C[C@H](CN2CCN(c3ccnc(N4CC[C@@H](N)[C@H](F)C4)n3)CC2)O1', 8.10),
  ('COC1CN(c2ccc(N3CCN(C[C@H]4CN(c5ccc(C#N)c6ncccc56)C[C@@H](C)O4)CC3)cn2)CC1N (stereo partly shown)', 7.66),
  ('[2H]c1ccc2c(N3C[C@H](CN4CC(O)(c5ccc(N6CC(C)(N)C6)cc5)C4)O[C@H](C)C3)ccc(C#N)c2n1', 7.68),
  ('C[C@@H]1CN(c2ccc(C#N)c3ncccc23)C[C@H](CN2CCN(c3ccnc(N4CCN(C(=O)C5CCN5)CC4)n3)CC2)O1 (stereo partly shown)', 7.57),
  ('CO[C@H]1CN(c2nc(C)cc(N3CCN(C[C@H]4CN(c5ccc(C#N)c6ncccc56)C[C@@H](C)O4)CC3)n2)CCC1N (stereo in doubt)', 7.68),
  ('[2H]c1ccc2c(N3C[C@H](CN4CCN(c5nc(OC)cc(N6CC(C)(N)C6)n5)CC4)O[C@H](C)C3)ccc(C#N)c2n1', 7.49),
  ('C[C@@H]1CN(c2ccc(C#N)c3ncccc23)C[C@H](CN2CCN(c3cccc(N4CCNCC4)n3)CC2)O1', 7.48),
  ('CO[C@H]1CN(c2cc(C)nc(N3CCN(C[C@H]4CN(c5ccc(C#N)c6nccnc56)C[C@@H](C)O4)CC3)n2)C[C@@H]1N', 7.66),
  ('[2H]c1ccc2c(N3C[C@H](CN4CCN(c5ccc(N6C[C@@H]7C[C@H]6CN7)nc5)CC4)O[C@H](C)C3)ccc(C#N)c2n1', 7.46);

Input line: Value lookup for pIC50; key = CO[C@@H]1CN(c2nccc(N3CCN(C[C@H]4CN(c5ccc(C#N)c6ncccc56)C[C@@H](C)O4)CC3)n2)C[C@@H]1N
Output line: 8.30

Input line: Could you do the same for C[C@@H]1CN(c2ccc(C#N)c3ncccc23)C[C@H](CN2CCN(c3nc(N4CCNCC4)nc4ccccc34)CC2)O1 , please?
Output line: 7.54

Input line: Could you do the same for C[C@@H]1CN(c2ccc(C#N)c3ncccc23)C[C@H](CN2CCN(c3cncc(N4CCNCC4)c3)CC2)O1 , please?
Output line: 7.47

Input line: Could you do the same for C[C@@H]1CN(c2ccc(C#N)c3ncccc23)C[C@H](CN2CCN(c3nc(N4CCNCC4)ncc3F)CC2)O1 , please?
Output line: 7.82

Input line: Could you do the same for Cc1cc(N2CCN(C[C@H]3CN(c4ccc(C#N)c5ncccc45)C[C@@H](C)O3)CC2)nc(NC2CNCC2F)n1 (stereo in doubt) , please?
Output line: 7.31

Input line: Could you do the same for C[C@@H]1CN(c2ccc(C#N)n3ncc(F)c23)C[C@H](CN2CCN(c3ccc(N4CC(C)(N)C4)nc3)CC2)O1 , please?
Output line: 7.49

Input line: Could you do the same for C[C@@H]1CN(c2ccc(C#N)n3ncc(F)c23)C[C@H](CN2CCN(c3ccc(C4(C)CNCCO4)cc3)CC2)O1 (stereo partly shown) , please?
Output line: 7.41

Input line: Could you do the same for C[C@@H]1CN(c2ccc(C#N)n3ncc(F)c23)C[C@H](CN2CCN(c3ccc(N4CC5(CN(C)C5)C4)nc3)CC2)O1 , please?
Output line: 8.22

Input line: Could you do the same for [2H]c1ccc2c(N3C[C@H](CN4CCN(c5ccc(N6CC(C)(N)C6)c(C)n5)CC4)O[C@H](C)C3)ccc(C#N)c2n1 , please?
Output line: 7.28

Input line: Could you do the same for COC1CNC[C@H]1Nc1cccc(N2CCN(C[C@H]3CN(c4ccc(C#N)c5ncccc45)C[C@@H](C)O3)CC2)n1 (stereo in doubt) , please?
Output line: 7.29

Input line: Could you do the same for [2H]c1nc2c(C#N)ccc(N3C[C@H](CN4CCN(c5nc(C)cc(N6CC(N)C6)n5)CC4)O[C@H](C)C3)c2nc1[2H] , please?
Output line: 8.30

Input line: Could you do the same for [2H]c1ccc2c(N3C[C@H](CN4CCN(c5ccc(N6C[C@@H](N)[C@H](OC)C6)nc5)CC4)O[C@H](C)C3)ccc(C#N)c2n1 , please?
Output line: 7.68

Input line: Could you do the same for CO[C@H]1CN(c2nc(C)cc(N3CCN(C[C@H]4CN(c5ccc(C#N)c6ncccc56)C[C@@H](C)O4)CC3)n2)CC1N (relative stereo) , please?
Output line: 7.96

Input line: Could you do the same for C[C@@H]1CN(c2ccc(C#N)c3ncccc23)C[C@H](CN2CCN(c3ccnc(N4CCN(C(=O)[C@@H]5CCCN5)CC4)n3)CC2)O1 , please?
Output line: 7.74

Input line: Could you do the same for [2H]c1ccc2c(N3C[C@H](CN4CC(c5cnc(N6C[C@@H](N)[C@H](OC)C6)cc5C)C4)O[C@H](C)C3)ccc(C#N)c2n1 , please?
Output line: 7.89
